# System: DTP cells
# method: Cell growth suppression test on DTP cells
# Format: cell-based, human
# particulars: Homo sapiens; Table 3; nine screening hits
observable: pIC50
In plain terms, pIC50 is the concentration in mol/L turned into minus its base-10 logarithm.

In the examples that follow, each entry is paired with its recorded pIC50.
[[record]]
structure_smiles_string = "CN(C)C/C=C/C(=O)Nc1ccc(C(=O)N2CCC[C@@H](Nc3ncc(Cl)c(-c4c[nH]c5ccccc45)n3)C2)cc1"
test_target = "DTP cells"
observable = "pIC50"
reported_result = 6.81

[[record]]
structure_smiles_string = "C[C@]12C=CC(=O)C=C1CC[C@H]1[C@@H]3C[C@@H](O)[C@](O)(C(=O)CO)[C@@]3(C)C[C@H](O)[C@@]12F"
test_target = "DTP cells"
observable = "pIC50"
reported_result = 5.87


# evaluate next
Value of measured pIC50 for the entry C[C@@H]1C[C@H]2[C@@H]3CCC4=CC(=O)C=C[C@]4(C)[C@@]3(F)[C@@H](O)C[C@]2(C)[C@@]1(O)C(=O)CO : 5.88

---

Recorded measurements of IC50, one per entry
# Tested on: NCI-H2228 cells (parental cells)
# method: Cell growth suppression test on NCI-H2228 parental cells
# Assay type: cell-based, human
# particulars: Homo sapiens, NCI-H2228; Table 3; nine screening hits

[[record]]
compound = "C[C@]12C=CC(=O)C=C1CC[C@H]1[C@@H]3C[C@@H](O)[C@](O)(C(=O)CO)[C@@]3(C)C[C@H](O)[C@@]12F"
reported_result = "> 10 µM"

[[record]]
compound = "C[C@@H]1C[C@H]2[C@@H]3CCC4=CC(=O)C=C[C@]4(C)[C@@]3(F)[C@@H](O)C[C@]2(C)[C@@]1(O)C(=O)CO"
reported_result = "> 10 µM"


Simply: C[C@]12CCC(=O)C=C1CC[C@@H]1[C@@H]2[C@@H](O)C[C@@]2(C)[C@H]1CC[C@]2(O)C(=O)CO [Hydrocortisone] , NCI-H2228 cells (parental cells), IC50 = > 10 µM
